# credit: the supplement of paper PMC9112550

Answer each item with its documented shrunken log2 fold change.
system: Escherichia coli TOP10; test: shrunken log2 fold change of peptide-encoding DNA abundance (4.5 h post-induction vs induction); higher = less antimicrobial activity (less host growth inhibition); conditions: time post-induction: 4.5 h; library: site-saturation at positions 5, 18, 19, 20

Req: Param readout = shrunken log2 fold change; param system = Escherichia coli TOP10; param query = RRIRYRPPRLPRPRPRPYTCPRP ; response: value;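 note: peptides expressed intracellularly from a pBAD plasmid library in pooled LB shake-flask culture, induced with 0.3% L-arabinose, DNA abundance read by NGS, three biological replicates, DESeq2 with apeglm shrinkage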
Resp: -0.00145

Req: What would you report for RRIRKRPPRLPRPRPRPQVVPRP ?
Resp: -0.0176

Req: Thanks! And RRIRWRPPRLPRPRPRPRAKPRP ?
Resp: 0.788

Req: Do the same for RRIRIRPPRLPRPRPRPVPSPRP please
Resp: -0.217

Req: Next record, please: RRIRTRPPRLPRPRPRPGYCPRP
Resp: -0.184

Req: Queued: RRIRARPPRLPRPRPRPRDMPRP
Resp: 1.52

Req: Next up: RRIRMRPPRLPRPRPRPHCVPRP
Resp: 0.0437

Req: Try the sequence RRIRDRPPRLPRPRPRPGEMPRP
Resp: 0.163

Req: RRIRMRPPRLPRPRPRPMCHPRP , same question.
Resp: 0.0525

Req: Then what about the sequence RRIRFRPPRLPRPRPRPCRVPRP ?
Resp: -0.129

Req: // query: RRIRWRPPRLPRPRPRPTMEPRP
Resp: 0.00667

Req: Consider next the sequence RRIRSRPPRLPRPRPRPRLLPRP in the same way.
Resp: 0.229

Req: Also check RRIRPRPPRLPRPRPRPFDVPRP
Resp: 0.0778

Req: And for RRIRDRPPRLPRPRPRPDVNPRP ?
Resp: 0.209

Req: Could you do the same for RRIRGRPPRLPRPRPRPQPEPRP , please?
Resp: 0.704
